The reported numbers originate from PubChem BioAssay (NCI).

// reported growth per item
# System: PC-3 prostate
# measurementProtocol: NCI-60 one-dose screen, 48 h (100 = growth as untreated, 0 = no growth, -100 = all killed)
# assaySetup: 10 µM unless noted
The panel holds about 83,000 compounds, 20% with a hit somewhere; the sample as a whole holds those more often.

{"columns": ["compound", "growth (%)"],
 "data": [
  ["Cc1ccc(S(=O)(=O)c2nc(-c3ccc(F)cc3)oc2S(C)(=O)=O)cc1", 91.8],
  ["CCCCCCN1C=C/C(=C\\C(=O)n2ccc3ccccc32)c2ccccc21", 58.6],
  ["C/C(=C(\\c1ccc(O)cc1)c1ccc(OCCN2CCCCCC2)cc1)c1ccc(Cl)cc1", -69.9],
  ["CC1=C(C)C(=O)C(Nc2cccc(C(F)(F)F)c2)=C(Br)C1=O", 71],
  ["O=C(/C=C/c1cccc(C(F)(F)F)c1)Nc1cccc(C(F)(F)F)c1", 18.9],
  ["COC(=O)N1CCN(CCNCc2ccc(NC(=O)c3ccc(C)c(C#Cc4cnc5cccnn45)c3)cc2C(F)(F)F)CC1", 25.5],
  ["COc1cc(-c2nc(-c3ccccc3)[nH]c2-c2ccnc(NCCCNS(=O)(=O)c3cccc(F)c3)n2)ccc1F", 62.9],
  ["Cc1[nH]c(C(=O)Nc2ccccc2OCc2cccc(C(=O)NCCN)c2)cc1Cl", 96.5],
  ["O=C1[C@@H]2Cc3c([nH]c4ccccc34)[C@@H](c3ccc(Cl)cc3)N2C(=O)CN1C1CCN(Cc2c(F)cccc2F)CC1", 13.8],
  ["Cc1ccccc1NC(=O)Nc1nc2ccc([N+](=O)[O-])cc2s1", 2.79],
  ["NC1C2CCC1CN(c1cnc(C(=O)Nc3cc(F)cc4cccnc34)cn1)C2 (centres undefined)", 61.4],
  ["Cc1ccc(C)c(NC2=C(Cl)C(=O)c3nc(C)ccc3C2=O)c1", 9.58],
  ["CNC(=O)c1cc(-n2ccc3cc(NC(=O)Nc4ccc(N5CCN(C)CC5)c(C(F)(F)F)c4)ccc32)ccn1", 60.8],
  ["Cc1csc(/N=C(N)/N=C(\\N)c2cccs2)n1", 92.3],
  ["N#C/C(=C\\c1ccc(-c2ccc(Cl)cc2)o1)C(=O)Nc1ncc(Cc2ccc(Br)cc2)s1", 9.73],
  ["CN1CCN(c2ccc(Nc3nc(NCCNS(=O)(=O)c4ccc5ccccc5c4)c4sccc4n3)cc2)CC1", 76],
  ["CC/C(=C(/c1ccc(Cl)cc1)c1ccc(OCCN)cc1)c1ccccc1", 103],
  ["CCCc1cc2cc(-n3nc(CC)c4c3CC(C)(C)CC4=O)cc(NC3CCC(O)CC3)c2c(=O)[nH]1 (centres undefined)", 32.8],
  ["CCCN1C=C/C(=C\\C(=O)n2ccc3ccccc32)c2ccccc21", 73.7]
]}

###

# Test system: CAKI-1 renal
# measurementProtocol: NCI-60 one-dose screen, 48 h (100 = growth as untreated, 0 = no growth, -100 = all killed)
# assaySetup: 10 µM unless noted
The panel holds about 83,000 compounds, 20% with a hit somewhere; the sample as a whole holds those more often.
Outcome label depends on growth relative to 20%: at/above gives y, below gives n.

{"columns": ["molecule", "group"],
 "data": [
  ["O=C(CCCCCCNC(=O)c1csc(Br)n1)NO", "y"],
  ["Fc1cc(F)cc(NNC(=S)c2ccccc2)c1", "y"],
  ["CCCCCCN1C=C/C(=C\\C(=O)n2ccc3ccccc32)c2ccccc21", "y"],
  ["C#C[C@]1(O)CC[C@H]2[C@@H]3CC=C4c5sc(Nc6ccc(C)cn6)nc5CC[C@]4(C)[C@H]3CC[C@@]21C", "n"],
  ["C=C(C=O)[C@@H]1CC[C@]2(C(=O)O)CC[C@]3(C)C(CC[C@@H]4[C@@](C)(CCC#N)[C@H](C(=C)C=O)CC[C@]43C)[C@@H]12 (stereo not given in full)", "n"],
  ["COc1ccc(C(C)=C(c2ccc(OCCN(C)C)cc2)c2ccc(OCCN(C)C)cc2)cc1", "n"],
  ["CN1CCN(Cc2ccc(NC(=O)c3cncc(C#Cc4cnc5ccc(OCC6COC6)nn45)c3)cc2C(F)(F)F)CC1", "n"],
  ["Cc1ccc2c(n1)C(=O)C(Cl)=C(Nc1ccc(C)c(C)c1)C2=O", "y"],
  ["Cc1ccc(/C(N)=N/C(N)=N/c2nc3ccccc3s2)cc1", "y"],
  ["C#CCN(C)CCCOc1ccc(NCc2ccc(/C=C/C(=O)NO)cc2)cc1Cl", "n"],
  ["CC(C)NC(=O)c1cc(-c2ccc(NC(=O)Nc3ccc(F)cc3)cc2)nc2cccnc12", "y"],
  ["O=C1[C@@H]2Cc3c([nH]c4ccccc34)[C@@H](c3ccc(Cl)cc3)N2C(=O)CN1C1CCN(Cc2c(F)cccc2F)CC1", "y"],
  ["CCOC(=O)c1c(NC(=O)c2ccc(C(F)(F)F)cc2)sc2c3c(ccc12)OCN(C)C3", "n"],
  ["O=c1oc2ccc(-c3ccc(F)cc3F)cc2c(=O)n1-c1ccc(Br)cc1F", "y"],
  ["CCNC(=O)Oc1ccc(/C(=C(/C)c2ccc(Cl)cc2)c2ccc(OCCN3CCCCCC3)cc2)cc1", "n"],
  ["O=C(CCCCCCN1CC(=O)N2[C@@H](C3CC3)c3[nH]c4ccccc4c3C[C@H]2C1=O)NO", "y"],
  ["CCCCSC1=C(Cl)CN(c2ccccc2)C1=O", "y"],
  ["CN(C)S(=O)(=O)c1ccc(-c2nc(C(Cl)Cl)nc3cc(-c4ccc(F)cc4)nn23)cc1", "n"],
  ["COc1ccc2c(c1)c(-c1nnc(N)nc1-c1c[nH]c3ccc(F)cc13)cn2C", "y"],
  ["Cc1[nH]c(C(=O)Nc2ccc(C(=O)NCC3CCNCC3)cc2OC(C)C)c(Cl)c1Cl", "y"]
]}
